This collection of values is drawn from paper PMC10397247.

Target: T1, 4H2575-AA
T1 chain: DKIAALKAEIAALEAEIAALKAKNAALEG
Assay: two-hybrid library CCmax;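 further: natural log of median RNA to DNA barcode read ratio; higher means stronger binding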
Details: mean of both orientations
// classify: if (interaction score < -1) met else not met

Prompt line: Check if interaction score falls below -1 for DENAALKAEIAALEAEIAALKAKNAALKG [4H1552-AA] .
Response line: not met

Prompt line: Check if interaction score falls below -1 for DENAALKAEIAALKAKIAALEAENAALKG [4H1636-AA] .
Response line: not met

Prompt line: Check if interaction score falls below -1 for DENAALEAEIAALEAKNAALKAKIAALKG [4H1086-AA] .
Response line: not met

Prompt line: Check if interaction score falls below -1 for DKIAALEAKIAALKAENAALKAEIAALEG [4H2393-AA] .
Response line: met

Prompt line: Check if interaction score falls below -1 for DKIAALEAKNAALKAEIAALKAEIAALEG [4H2505-AA] .
Response line: not met

Prompt line: Check if interaction score falls below -1 for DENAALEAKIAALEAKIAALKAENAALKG [4H1324-AA] .
Response line: not met

Prompt line: Check if interaction score falls below -1 for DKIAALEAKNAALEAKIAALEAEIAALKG [4H2466-AA] .
Response line: met

Prompt line: Check if interaction score falls below -1 for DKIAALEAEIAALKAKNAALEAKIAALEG [4H2165-AA] .
Response line: met

Prompt line: Check if interaction score falls below -1 for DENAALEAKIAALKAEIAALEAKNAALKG [4H1352-AA] .
Response line: not met

Prompt line: Check if interaction score falls below -1 for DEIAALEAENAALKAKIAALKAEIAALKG [4H234-AA] .
Response line: not met

Prompt line: Check if interaction score falls below -1 for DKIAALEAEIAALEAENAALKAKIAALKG [4H2078-AA] .
Response line: not met

Prompt line: Check if interaction score falls below -1 for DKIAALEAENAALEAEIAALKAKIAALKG [4H2190-AA] .
Response line: not met
